Assay: In vitro rat liver S9 stability assay, formation of tafamidis
Format: in vitro ADME
Details: rat liver S9, 37° C., 1 µM test compound
Observation type: Formation of tafamidis at 60 min

[[record]]
compound = "CC(CN(C)C)OC(=O)c1ccc2nc(-c3cc(Cl)cc(Cl)c3)oc2c1 (single isomer, unassigned) [Compound 47]"
observation_type = "Formation of tafamidis at 60 min"
measured_value = "A (A is <25%)"

[[record]]
compound = "CN1CC[C@@H](OC(=O)c2ccc3nc(-c4cc(Cl)cc(Cl)c4)oc3c2)C1 [Compound 59]"
observation_type = "Formation of tafamidis at 60 min"
measured_value = "A (A is <25%)"

[[record]]
compound = "CN1CCC(OC(=O)c2ccc3nc(-c4cc(Cl)cc(Cl)c4)oc3c2)CC1 [Compound 11]"
observation_type = "Formation of tafamidis at 60 min"
measured_value = "A (A is <25%)"


###

Assay: In vitro rat liver S9 stability assay, formation of tafamidis
Type: in vitro ADME
Conditions: rat liver S9, 37° C., 1 µM test compound
Where a name gives a salt, the structure may show the parent alone.
Observation type: Formation of tafamidis at 60 min

// below: answered compounds
[[record]]
compound = "O=C(OC1CCNCC1)c1ccc2nc(-c3cc(Cl)cc(Cl)c3)oc2c1 [Compound 13, hydrochloride]"
measured_value = "A (A is <25%)"

[[record]]
compound = "O=C(OCc1ccnnc1)c1ccc2nc(-c3cc(Cl)cc(Cl)c3)oc2c1"
measured_value = "C (C is ≥50 to <75%)"

[[record]]
compound = "O=C(OCCc1ccccn1)c1ccc2nc(-c3cc(Cl)cc(Cl)c3)oc2c1"
measured_value = "D (D is ≥75%)"

[[record]]
compound = "O=C(OCCN1CCCCC1)c1ccc2nc(-c3cc(Cl)cc(Cl)c3)oc2c1"
measured_value = "C (C is ≥50 to <75%)"

[[record]]
compound = "CC(Cc1ccncc1)OC(=O)c1ccc2nc(-c3cc(Cl)cc(Cl)c3)oc2c1 (stereo not drawn)"
measured_value = "B (B is ≥25 to <50%)"


Input O=C(OC1CCN(CC(F)F)C1)c1ccc2nc(-c3cc(Cl)cc(Cl)c3)oc2c1 (stereo not drawn) . Output Formation of tafamidis at 60 min: C (C is ≥50 to <75%)

Measured Formation of tafamidis at 60 min, O=C(OC1CC2CCC1CN2)c1ccc2nc(-c3cc(Cl)cc(Cl)c3)oc2c1 (stereo not drawn) [Compound 27, hydrochloride] : A (A is <25%)

So, O=C(OCCCN1CCCCC1)c1ccc2nc(-c3cc(Cl)cc(Cl)c3)oc2c1 ? Its Formation of tafamidis at 60 min was A (A is <25%)

Given item O=C(NCC(F)F)c1ccc2nc(-c3cc(Cl)cc(Cl)c3)oc2c1 , the value recorded as its Formation of tafamidis at 60 min is A (A is <25%)

###

Experiment: In vitro rat liver S9 stability assay, formation of tafamidis
Type: in vitro ADME
Conditions: rat liver S9, 37° C., 1 µM test compound
Counter-ions that a name gives are not always drawn.
Observation type: Formation of tafamidis at 60 min

Examples with their reported Formation of tafamidis at 60 min follow.
[[record]]
compound = "O=C(OCCCc1cccnc1)c1ccc2nc(-c3cc(Cl)cc(Cl)c3)oc2c1"
measured_value = "D (D is ≥75%)"

[[record]]
compound = "O=C(OCC1CCOC1)c1ccc2nc(-c3cc(Cl)cc(Cl)c3)oc2c1 (centres unmarked)"
measured_value = "C (C is ≥50 to <75%)"

[[record]]
compound = "CCN(CC)CCOC(=O)c1ccc2nc(-c3cc(Cl)cc(Cl)c3)oc2c1 [Compound 35, hydrochloride]"
measured_value = "B (B is ≥25 to <50%)"

[[record]]
compound = "CN1CC(OC(=O)c2ccc3nc(-c4cc(Cl)cc(Cl)c4)oc3c2)CCC1=O (centres unmarked)"
measured_value = "B (B is ≥25 to <50%)"

[[record]]
compound = "O=C(OCc1cccnn1)c1ccc2nc(-c3cc(Cl)cc(Cl)c3)oc2c1"
measured_value = "D (D is ≥75%)"


# Formation of tafamidis at 60 min (compound: CN1CC(OC(=O)c2ccc3nc(-c4cc(Cl)cc(Cl)c4)oc3c2)CC(F)(F)C1 (centres unmarked) ) is C (C is ≥50 to <75%)

Item: CN(CC(F)F)C(=O)c1ccc2nc(-c3cc(Cl)cc(Cl)c3)oc2c1 | Formation of tafamidis at 60 min: A (A is <25%)

Formation of tafamidis at 60 min for CC(=O)N1CCC(OC(=O)c2ccc3nc(-c4cc(Cl)cc(Cl)c4)oc3c2)C1 (centres unmarked) is A (A is <25%)

###

Assay: In vitro rat plasma stability assay, formation of tafamidis
Type: in vitro ADME
Conditions: 37° C., 2 µM test compound
Experimental: A stability assay in plasma (rat or human) was used to evaluate the ability of a compound provided herein to convert to an active TTR stabilizer. The test compound was added to plasma and incubated at 37° C. in a water bath at a concentration of 2 µM. […] After centrifugation, an aliquot of supernatant was analyzed by LC-MS/MS. The percentage of formation of active agent was calculated at each time point.
Observation type: Formation of tafamidis at 120 min

Look over these answered cases.
[[record]]
molecule = "CC(C)(C)OC(=O)N[C@H](Cc1cccc(OC(=O)c2ccc3nc(-c4cc(Cl)cc(Cl)c4)oc3c2)c1)C(=O)O [Compound 72]"
measured_value = "B (B is ≥25 to <50%)"

[[record]]
molecule = "O=C(NCC(F)F)c1ccc2nc(-c3cc(Cl)cc(Cl)c3)oc2c1 [Compound 66]"
measured_value = "A (A is <25%)"

[[record]]
molecule = "C[C@H](COC(=O)c1ccc2nc(-c3cc(Cl)cc(Cl)c3)oc2c1)N(C)C [Compound 45]"
measured_value = "C (C is ≥50 to <75%)"

[[record]]
molecule = "O=C(OC1CCN(CC(F)F)C1)c1ccc2nc(-c3cc(Cl)cc(Cl)c3)oc2c1 (centres unmarked) [Compound 144]"
measured_value = "B (B is ≥25 to <50%)"

[[record]]
molecule = "O=C(OCC1CCOC1)c1ccc2nc(-c3cc(Cl)cc(Cl)c3)oc2c1 (centres unmarked) [Compound 85]"
measured_value = "C (C is ≥50 to <75%)"


Just so you know, measured Formation of tafamidis at 120 min for O=C(NCC(F)(F)F)c1ccc2nc(-c3cc(Cl)cc(Cl)c3)oc2c1 [Compound 67] came out at A (A is <25%)

Lab note: CC(Cn1ccnc1)OC(=O)c1ccc2nc(-c3cc(Cl)cc(Cl)c3)oc2c1 (centres unmarked) [Compound 170] gave Formation of tafamidis at 120 min of B (B is ≥25 to <50%)

The recorded Formation of tafamidis at 120 min for entry O=C(OC1CCN(CC(F)(F)F)C1)c1ccc2nc(-c3cc(Cl)cc(Cl)c3)oc2c1 (centres unmarked) [Compound 151] equals A (A is <25%)

# Formation of tafamidis at 120 min of CC(=O)OCC(COC(C)=O)OC(=O)c1ccc2nc(-c3cc(Cl)cc(Cl)c3)oc2c1 [Compound 2] = B (B is ≥25 to <50%)

###

Assay: In vitro rat liver S9 stability assay, formation of tafamidis
Format: in vitro ADME
Conditions: rat liver S9, 37° C., 1 µM test compound
Where a name gives a salt, the structure may show the parent alone.
Observation type: Formation of tafamidis at 60 min

Here are 5 molecules together with their reported answers.
[[record]]
molecule = "O=C(OCCn1ccnc1)c1ccc2nc(-c3cc(Cl)cc(Cl)c3)oc2c1 [Compound 99]"
measured_value = "D (D is ≥75%)"

[[record]]
molecule = "O=C(OCC1CCCO1)c1ccc2nc(-c3cc(Cl)cc(Cl)c3)oc2c1 (stereo not shown) [Compound 86]"
measured_value = "D (D is ≥75%)"

[[record]]
molecule = "CN(C)[C@H]1C[C@@H]1OC(=O)c1ccc2nc(-c3cc(Cl)cc(Cl)c3)oc2c1 (relative stereo) [Compound 154, hydrochloride]"
measured_value = "C (C is ≥50 to <75%)"

[[record]]
molecule = "O=C(OCc1ccccc1)c1ccc2nc(-c3cc(Cl)cc(Cl)c3)oc2c1 [Compound 186]"
measured_value = "D (D is ≥75%)"

[[record]]
molecule = "O=C(OC1CCNC1)c1ccc2nc(-c3cc(Cl)cc(Cl)c3)oc2c1 (stereo not shown) [Compound 17, hydrochloride]"
measured_value = "A (A is <25%)"


For O=C(OCCc1ccncc1)c1ccc2nc(-c3cc(Cl)cc(Cl)c3)oc2c1 [Compound 110] the molecule record lists Formation of tafamidis at 60 min as C (C is ≥50 to <75%)

The recorded Formation of tafamidis at 60 min for entry O=CN1CCC(OC(=O)c2ccc3nc(-c4cc(Cl)cc(Cl)c4)oc3c2)C1 (stereo not shown) [Compound 150] equals B (B is ≥25 to <50%)

Per the records, this molecule ( CN1CCC(COC(=O)c2ccc3nc(-c4cc(Cl)cc(Cl)c4)oc3c2)C1 (stereo not shown) [Compound 60] ) has Formation of tafamidis at 60 min equal to A (A is <25%)

CC(OC(=O)c1ccc2nc(-c3cc(Cl)cc(Cl)c3)oc2c1)c1ccn(C)n1 (stereo not shown) [Compound 160] has a reported Formation of tafamidis at 60 min of C (C is ≥50 to <75%)

// sample Cn1cncc1COC(=O)c1ccc2nc(-c3cc(Cl)cc(Cl)c3)oc2c1 [Compound 123] , its Formation of tafamidis at 60 min was C (C is ≥50 to <75%)

According to the records, this molecule O=C(OCc1ncc[nH]1)c1ccc2nc(-c3cc(Cl)cc(Cl)c3)oc2c1 [Compound 89] displays Formation of tafamidis at 60 min of D (D is ≥75%)

The molecule listed as O=C(OCc1cnccn1)c1ccc2nc(-c3cc(Cl)cc(Cl)c3)oc2c1 [Compound 132] shows Formation of tafamidis at 60 min equal to D (D is ≥75%)

For reference, reported Formation of tafamidis at 60 min for O=C(OC1CCCN(Cc2ccccc2)C1)c1ccc2nc(-c3cc(Cl)cc(Cl)c3)oc2c1 (stereo not shown) [Compound 164] stands at B (B is ≥25 to <50%)

The value of Formation of tafamidis at 60 min measured for the molecule CN(C)[C@H]1CCC[C@@H]1OC(=O)c1ccc2nc(-c3cc(Cl)cc(Cl)c3)oc2c1 [Compound 116] turned out to be A (A is <25%)

// Cn1ccc(CCCOC(=O)c2ccc3nc(-c4cc(Cl)cc(Cl)c4)oc3c2)n1 [Compound 104] : Formation of tafamidis at 60 min value = B (B is ≥25 to <50%)

Kindly note the recorded Formation of tafamidis at 60 min for O=C(OC1CCc2nccn2C1)c1ccc2nc(-c3cc(Cl)cc(Cl)c3)oc2c1 (stereo not shown) [Compound 157, hydrochloride] , which is A (A is <25%)
